Cited source for all entries: ChEMBL document CHEMBL1124530

TARGET_SYSTEM: Muscarinic acetylcholine receptor (Homo sapiens) (UniProt P20309+P08173+P11229+P08172+P08912)
ASSAY_NAME: Tested in vitro for agonistic activity of compound towards muscarinic receptor in the concentration range of 1xe-6 to 1xe-4 M of guinea pig ileum; Inactive
Assay type: functional, tissue-based
MEASUREMENT_CONDITIONS: Cavia porcellus, target entry is the homologue from another species
Active and inactive are the calls of the source. The rule behind the calls is not given here.
READOUT_KIND: Max respose

smiles_data=C[S+](C)CC#CCOC(=O)Nc1ccc(Br)cc1.[O-][Cl+3]([O-])([O-])[O-] meas_value=inactive
smiles_data=C[S+](C)CC#CCOC(=O)Nc1cccc(Cl)c1.[O-][Cl+3]([O-])([O-])[O-] meas_value=inactive
smiles_data=C[S+](C)CC#CCOC(=O)Nc1cccc(Br)c1.[O-][Cl+3]([O-])([O-])[O-] meas_value=inactive
smiles_data=C[S+](C)CC#CCOC(=O)Nc1ccc(Cl)cc1.[O-][Cl+3]([O-])([O-])[O-] meas_value=inactive
